test: Cytotoxicity against human HepG2 cells assessed as cell growth inhibition incubated for 3 days by CellTiter-Glo reagent-based luminescence assay; format: toxicity
Consider the reported IC50 at 3 days of an entry and match it to a band in c1 = under 40 µM, c2 = from 40 µM up to 60 µM, c3 = 60 µM and over

The examples below pair each entry with its known result.
>  <Compound>
COc1ccc(-c2cc(C(F)(F)F)c3c(N)c(C(=O)Nc4ccccc4)sc3n2)cc1

>  <Category label>
c3

$$$$
>  <Compound>
CN(C)C(=O)c1sc2ncccc2c1N

>  <Category label>
c3

$$$$
>  <Compound>
COc1ccc(-c2cc(C(F)(F)F)c3c(N)c(C(=O)Nc4ccc(C)c(C)c4)sc3n2)cc1

>  <Category label>
c3

$$$$

Let us examine a further case.
Note: place this compound into its band. Item: COc1ccc(-c2cc(C(F)(F)F)c3c(N)c(C(=O)N4CC(C)OC(C)C4)sc3n2)cc1 (stereo not given)
c2

----------
Task for the reader: assign each of the following molecules its reported IC50 at 3 days.
assay: Cytotoxicity against human HepG2 cells assessed as cell growth inhibition incubated for 3 days by CellTiter-Glo reagent-based luminescence assay; assay type: toxicity

Here is how some molecules turned out for IC50 at 3 days.
>  <Smiles input>
Nc1c(C(=O)Nc2cccnc2)sc2nc(-c3ccccc3)cc(C(F)(F)F)c12

>  <IC50 at 3 days>
> 100 µM

$$$$
>  <Smiles input>
CCN(CC)C(=O)c1sc2ncccc2c1N

>  <IC50 at 3 days>
> 100 µM

$$$$

Please look at the following molecule next.
Retrieve IC50 at 3 days measured for COc1ccc(-c2cc(C(F)(F)F)c3c(N)c(C(=O)N4CC(F)(F)C4)sc3n2)cc1 and print it.
> 50 µM

----------
system: Mycobacterium tuberculosis; assay: Antibacterial activity against wild type Mycobacterium tuberculosis H37Rv-LP DREAM8 strain expressing codon-optimized DsRed assessed growth inhibition incubated for 5 days by fluorescence spectrophotometric assay; format: functional; conditions: H37Rv-LP DREAM8, 120 h, time 5 day
Provide the recorded IC90 for the entries that follow.

>  <Compound>
Nc1c(C(=O)NC23CC4CC(CC(C4)C2)C3)sc2nc(-c3ccc4c(c3)OCO4)cc(C(F)(F)F)c12

>  <IC90>
0.68 µM

$$$$
>  <Compound>
COc1ccc(-c2cc(C(F)(F)F)c3c(N)c(C(=O)Nc4cccc(C)c4C)sc3n2)cc1OC

>  <IC90>
> 100 µM

$$$$
>  <Compound>
COc1ccc(-c2cc(C(F)(F)F)c3c(N)c(C(=O)NC(C)C4CCCCC4)sc3n2)cc1 (stereo unspecified)

>  <IC90>
1.1 µM

$$$$
>  <Compound>
CN(C)C(=O)c1sc2ncccc2c1N

>  <IC90>
> 100 µM

$$$$
>  <Compound>
COc1ccc(-c2cc(C(F)(F)F)c3c(N)c(C(=O)N4CCCC4(C)C)sc3n2)cc1

>  <IC90>
> 100 µM

$$$$
>  <Compound>
CCN(CC)C(=O)c1sc2ncccc2c1N

>  <IC90>
> 100 µM

$$$$
>  <Compound>
COc1ccc(-c2cc(C(F)(F)F)c3c(N)c(C(=O)N4CC(OC)C4)sc3n2)cc1

>  <IC90>
> 100 µM

$$$$
>  <Compound>
COc1ccc(-c2cc(C(F)(F)F)c3c(N)c(C(=O)Nc4ccc(C)c(C)c4)sc3n2)cc1

>  <IC90>
> 100 µM

$$$$

// for each compound in input: emit IC90
1. Cc1ccc(NC(=O)c2sc3nc(C)cc(C(F)(F)F)c3c2N)cc1
2. COc1ccc(-c2cc(C(F)(F)F)c3c(N)c(C(=O)NC45CC6CC(CC(O)(C6)C4)C5)sc3n2)cc1
3. Nc1c(C(=O)N2CCOCC2)sc2nc(-c3ccc(F)cc3)ccc12
4. COc1ccc(-c2cc(C(F)(F)F)c3c(N)c(C(=O)Nc4cc(C)cc(C)c4)sc3n2)cc1
5. CN(C)C(=O)c1sc2nc(-c3ccccc3)ccc2c1N
6. Nc1c(C(=O)N2CCOCC2)sc2nc(-c3cccnc3)ccc12
7. COc1ccc(-c2cc(C(F)(F)F)c3c(N)c(C(=O)NC45CC(C4)C5)sc3n2)cc1
8. CCC(NC(=O)c1sc2nc(-c3ccc(OC)cc3)cc(C(F)(F)F)c2c1N)c1ccccc1 (stereo unspecified)

1. > 100 µM
2. 7.5 µM
3. > 100 µM
4. > 100 µM
5. > 100 µM
6. > 100 µM
7. > 50 µM
8. 0.74 µM
